System: RAW264.7
Assay: Cytotoxicity against mouse RAW264.7 cells assessed as reduction in cell viability at 6.25 to 100 uM after 24 hrs by EZ-Cytox cell viability assay
Assay type: cell-based
Conditions: raw264.7, 24 h
measurementLabel: Activity

# compound, experimentalResult
rows = [
    ("C[C@@H](/C=C/[C@H]1C(CO)=CC(=O)CC1(C)C)O[C@@H]1O[C@H](CO)[C@@H](O)[C@H](O)[C@H]1O", "Non-Toxic"),
    ("O=C1c2c(O)cc(O[C@@H]3O[C@H](CO)[C@@H](O)[C@H](O)[C@H]3O)cc2O[C@H](c2ccc(O)c(O)c2)[C@H]1O", "Non-Toxic"),
    ("CC1=CC(=O)CC(C)(C)[C@H]1CC[C@@H](O)CO[C@@H]1O[C@H](CO)[C@@H](O)[C@H](O)[C@H]1O", "Non-Toxic"),
    ("COc1cc(-c2oc3cc(O)cc(O)c3c(=O)c2O[C@@H]2O[C@H](CO[C@@H]3O[C@@H](C)[C@H](O)[C@@H](O)[C@H]3O)[C@@H](O)[C@H](O)[C@H]2O)ccc1O [NARCISSIN]", "Non-Toxic"),
    ("COc1cc([C@H]2OC[C@H]3[C@@H]2CO[C@@H]3c2cc(OC)c(O[C@@H]3O[C@H](CO)[C@@H](O)[C@H](O)[C@H]3O)c(OC)c2)cc(OC)c1O", "Non-Toxic"),
    ("COc1cc(-c2oc3cc(O)cc(O)c3c(=O)c2O[C@@H]2O[C@H](CO)[C@@H](O)[C@H](O)[C@H]2O)ccc1O", "Non-Toxic"),
    ("COc1cc(/C=C/C(=O)O[C@@H]2O[C@H](CO)[C@@H](O)[C@H](O)[C@H]2O)ccc1O", "Non-Toxic"),
]
